Source: patent US4822907A

Would you kindly list Inhibition Rate for each of these compounds?
# ASSAY_NOTES: Desalting and concentration of raw solution on spiral polyamide reverse osmosis membranes; inhibition rate of each component (Example 1, Table 1)
# Format: physicochemical
# CONDITION_DETAILS: membrane NaCl inhibition rate 30%; immediately after permeation started; pH 4.54, 20° C., 40 kg/cm^2
Residues, ends and D or L forms follow the SMILES beside them.
Kindly provide the numeric value in % only, without the unit symbol.

Ask | Given the entry COC(=O)C[C@H](N)C(=O)N[C@@H](Cc1ccccc1)C(=O)OC [α-A(M)PM] (H-Asp(OMe)-Phe-OMe) , report its measured Inhibition Rate.
Reply | 82.7

Ask | Given the entry N[C@@H](CC(=O)O)C(=O)N[C@@H](Cc1ccccc1)C(=O)O [α-AP, α-L-aspartyl-L-phenylalanine] (H-Asp-Phe-OH) , report its measured Inhibition Rate.
Reply | 98.8

Ask | Given the entry [Cl-].[Na+] [NaCl, sodium chloride] , report its measured Inhibition Rate.
Reply | 23.5

Ask | Given the entry COC(=O)[C@H](Cc1ccccc1)NC(=O)[C@@H](N)CC(=O)O [α-APM] (H-Asp-Phe-OMe) , report its measured Inhibition Rate.
Reply | 96.2

* * *

Would you kindly list Inhibition Rate for each of these compounds?
# ASSAY_NOTES: Desalting and concentration of raw solution on spiral polyamide reverse osmosis membranes; inhibition rate of each component (Example 1, Table 1)
# Assay type: physicochemical
# CONDITION_DETAILS: membrane NaCl inhibition rate 80%; immediately after permeation started; pH 4.54, 20° C., 40 kg/cm^2
Residues, ends and D or L forms follow the SMILES beside them.

Ask | Given the entry COC(=O)C[C@H](N)C(=O)N[C@@H](Cc1ccccc1)C(=O)OC [α-A(M)PM] (H-Asp(OMe)-Phe-OMe) , report its measured Inhibition Rate.
Reply | 93.1%

Ask | Given the entry [Cl-].[Na+] [NaCl, sodium chloride] , report its measured Inhibition Rate.
Reply | 85.6%

Ask | Given the entry COC(=O)[C@H](Cc1ccccc1)NC(=O)[C@@H](N)CC(=O)O [α-APM] (H-Asp-Phe-OMe) , report its measured Inhibition Rate.
Reply | 99.0%

Ask | Given the entry N[C@@H](CC(=O)O)C(=O)N[C@@H](Cc1ccccc1)C(=O)O [α-AP, α-L-aspartyl-L-phenylalanine] (H-Asp-Phe-OH) , report its measured Inhibition Rate.
Reply | 99.7%

* * *

Would you kindly list Inhibition Rate for each of these molecules?
# ASSAY_NOTES: Desalting and concentration of raw solution on spiral polyamide reverse osmosis membranes; inhibition rate of each component (Example 1, Table 1)
# Assay type: physicochemical
# CONDITION_DETAILS: membrane NaCl inhibition rate 15% (control); when concentrated to 2.5 times; 20° C., 40 kg/cm^2
Residues, ends and D or L forms follow the SMILES beside them.
Kindly provide the numeric value in % only, without the unit symbol.

Ask | Given the entry [Cl-].[Na+] [NaCl, sodium chloride] , report its measured Inhibition Rate.
Reply | 9.3

Ask | Given the entry COC(=O)[C@H](Cc1ccccc1)NC(=O)[C@@H](N)CC(=O)O [α-APM] (H-Asp-Phe-OMe) , report its measured Inhibition Rate.
Reply | 79.2

Ask | Given the entry COC(=O)C[C@H](N)C(=O)N[C@@H](Cc1ccccc1)C(=O)OC [α-A(M)PM] (H-Asp(OMe)-Phe-OMe) , report its measured Inhibition Rate.
Reply | 59.3
